system: SNU-C4 xenografted nude mice; assay: Biodistribution study in SNU-C4 xenografted nude mice after intravenous injection; format: in vivo, mouse; conditions: stomach, 10 min after intravenous injection
measurement.kind: % ID/g Stomach (% ID/g)

O=C([O-])CN1CCN(CC(=O)[O-])CCN(CC(=O)[O-])CC1.[68Ga+3] [^68Ga-NOTA, reference compound]
2.13
N[C@@H](CN1CCN(CC(=O)[O-])CCN(CC(=O)[O-])CCN(CC(=O)[O-])CC1)C(=O)O.[68Ga+3] (stereo in doubt) [^68Ga-DO3A-ala]
1.97
O=C([O-])CN1CCN(CC(=O)[O-])CCN(CC(=O)O)CCN(CC(=O)[O-])CC1.[68Ga+3] [^68Ga-DOTA, reference compound]
1.86
NC(CN1CCN(CC(=O)[O-])CCNCCN(CC(=O)[O-])CC1)C(=O)[O-].[68Ga+3] (centres unmarked) [^68Ga-DO2A-ala]
2.48
NC(CNC(=O)CN1CCN(CC(=O)[O-])CCN(CC(=O)[O-])CC1)C(=O)[O-].[68Ga+3] (centres unmarked) [^68Ga-NOTA-ala]
2.46
O=C([O-])CN1CCNCCN(CC(=O)[O-])CCNCC1.[68Ga+3] [^68Ga-DO2A, reference compound]
2.52
NC(CNC(=O)CN1CCN(CC(=O)[O-])CCN(CC(=O)[O-])CCN(CC(=O)[O-])CC1)C(=O)O.[68Ga+3] (centres unmarked) [^68Ga-DOTA-ala]
2.63
O=C([O-])CN1CCNCCN(CC(=O)[O-])CCN(CC(=O)[O-])CC1.[68Ga+3] [^68Ga-DO3A, reference compound]
2.37

* * *

system: SNU-C4 xenografted nude mice; test: Biodistribution study in SNU-C4 xenografted nude mice after intravenous injection; format: in vivo, mouse; conditions: kidney, 2 hr after intravenous injection
measurement.kind: % ID/g Kidney (% ID/g)

Consider the following illustrative entries.
O=C([O-])CN1CCNCCN(CC(=O)[O-])CCNCC1.[68Ga+3] [^68Ga-DO2A, reference compound]
6.90
NC(CN1CCN(CC(=O)[O-])CCNCCN(CC(=O)[O-])CC1)C(=O)[O-].[68Ga+3] (centres unmarked) [^68Ga-DO2A-ala]
3.99
N[C@@H](CN1CCN(CC(=O)[O-])CCN(CC(=O)[O-])CCN(CC(=O)[O-])CC1)C(=O)O.[68Ga+3] (stereo in doubt) [^68Ga-DO3A-ala]
6.06
O=C([O-])CN1CCN(CC(=O)[O-])CCN(CC(=O)O)CCN(CC(=O)[O-])CC1.[68Ga+3] [^68Ga-DOTA, reference compound]
2.92

[1] O=C([O-])CN1CCNCCN(CC(=O)[O-])CCN(CC(=O)[O-])CC1.[68Ga+3] [^68Ga-DO3A, reference compound]
[2] NC(CNC(=O)CN1CCN(CC(=O)[O-])CCN(CC(=O)[O-])CC1)C(=O)[O-].[68Ga+3] (centres unmarked) [^68Ga-NOTA-ala]
[3] O=C([O-])CN1CCN(CC(=O)[O-])CCN(CC(=O)[O-])CC1.[68Ga+3] [^68Ga-NOTA, reference compound]
[4] NC(CNC(=O)CN1CCN(CC(=O)[O-])CCN(CC(=O)[O-])CCN(CC(=O)[O-])CC1)C(=O)O.[68Ga+3] (centres unmarked) [^68Ga-DOTA-ala]
Enquiry: With regard to % ID/g Kidney, arrange the entries in ascending order, please. # output: labels, in the requested order
Return: 3, 2, 1, 4
(3: 2.73 % ID/g, 2: 4.04 % ID/g, 1: 7.50 % ID/g, 4: 48.79 % ID/g)

* * *

system: SNU-C4 xenografted nude mice; assay: Biodistribution study in SNU-C4 xenografted nude mice after intravenous injection; type: in vivo, mouse; conditions: muscle, 2 hr after intravenous injection
measurement.kind: % ID/g Muscle (% ID/g)

Consider the following illustrative entries.
NC(CN1CCN(CC(=O)[O-])CCNCCN(CC(=O)[O-])CC1)C(=O)[O-].[68Ga+3] (centres unmarked) [^68Ga-DO2A-ala]
0.49
N[C@@H](CN1CCN(CC(=O)[O-])CCN(CC(=O)[O-])CCN(CC(=O)[O-])CC1)C(=O)O.[68Ga+3] (stereo in doubt) [^68Ga-DO3A-ala]
1.33
O=C([O-])CN1CCN(CC(=O)[O-])CCN(CC(=O)[O-])CC1.[68Ga+3] [^68Ga-NOTA, reference compound]
0.04
O=C([O-])CN1CCNCCN(CC(=O)[O-])CCNCC1.[68Ga+3] [^68Ga-DO2A, reference compound]
0.13
NC(CNC(=O)CN1CCN(CC(=O)[O-])CCN(CC(=O)[O-])CCN(CC(=O)[O-])CC1)C(=O)O.[68Ga+3] (centres unmarked) [^68Ga-DOTA-ala]
0.14
O=C([O-])CN1CCNCCN(CC(=O)[O-])CCN(CC(=O)[O-])CC1.[68Ga+3] [^68Ga-DO3A, reference compound]
0.10

[1] NC(CNC(=O)CN1CCN(CC(=O)[O-])CCN(CC(=O)[O-])CC1)C(=O)[O-].[68Ga+3] (centres unmarked) [^68Ga-NOTA-ala]
[2] O=C([O-])CN1CCN(CC(=O)[O-])CCN(CC(=O)O)CCN(CC(=O)[O-])CC1.[68Ga+3] [^68Ga-DOTA, reference compound]
Enquiry: Given the listed records, identify the one among 1 and 2 with higher % ID/g Muscle. Give the label under which the chosen entry appears.
Return: 2
(2: 0.10 % ID/g, 1: 0.06 % ID/g)

* * *

test system: SNU-C4 xenografted nude mice; assay: Biodistribution study in SNU-C4 xenografted nude mice after intravenous injection; assay type: in vivo, mouse; settings: bone, 2 hr after intravenous injection
measurement.kind: % ID/g Bone (% ID/g)

[A] NC(CN1CCN(CC(=O)[O-])CCNCCN(CC(=O)[O-])CC1)C(=O)[O-].[68Ga+3] (centres unmarked) [^68Ga-DO2A-ala]
[B] O=C([O-])CN1CCN(CC(=O)[O-])CCN(CC(=O)[O-])CC1.[68Ga+3] [^68Ga-NOTA, reference compound]
Enquiry: Of A and B , whose reported % ID/g Bone is numerically smaller? Give the label under which the chosen entry appears.
Return: B

[a] NC(CNC(=O)CN1CCN(CC(=O)[O-])CCN(CC(=O)[O-])CCN(CC(=O)[O-])CC1)C(=O)O.[68Ga+3] (centres unmarked) [^68Ga-DOTA-ala]
[b] NC(CNC(=O)CN1CCN(CC(=O)[O-])CCN(CC(=O)[O-])CC1)C(=O)[O-].[68Ga+3] (centres unmarked) [^68Ga-NOTA-ala]
Enquiry: Of a and b , whose reported % ID/g Bone is numerically smaller? Give the label under which the chosen entry appears.
Return: b
(b: 0.10 % ID/g, a: 0.70 % ID/g)

[I] O=C([O-])CN1CCNCCN(CC(=O)[O-])CCN(CC(=O)[O-])CC1.[68Ga+3] [^68Ga-DO3A, reference compound]
[II] O=C([O-])CN1CCN(CC(=O)[O-])CCN(CC(=O)O)CCN(CC(=O)[O-])CC1.[68Ga+3] [^68Ga-DOTA, reference compound]
[III] N[C@@H](CN1CCN(CC(=O)[O-])CCN(CC(=O)[O-])CCN(CC(=O)[O-])CC1)C(=O)O.[68Ga+3] (stereo in doubt) [^68Ga-DO3A-ala]
[IV] O=C([O-])CN1CCNCCN(CC(=O)[O-])CCNCC1.[68Ga+3] [^68Ga-DO2A, reference compound]
Enquiry: Order the records so the highest % ID/g Bone appears first and the lowest last. # output: labels, in the requested order
Return: III, IV, I, II
(III: 5.00 % ID/g, IV: 0.58 % ID/g, I: 0.28 % ID/g, II: 0.17 % ID/g)

* * *

tested on: SNU-C4 xenografted nude mice; assay: Biodistribution study in SNU-C4 xenografted nude mice after intravenous injection; format: in vivo, mouse; settings: lung, 10 min after intravenous injection
measurement.kind: % ID/g Lung (% ID/g)

O=C([O-])CN1CCNCCN(CC(=O)[O-])CCNCC1.[68Ga+3] [^68Ga-DO2A, reference compound]
6.96

[1] NC(CN1CCN(CC(=O)[O-])CCNCCN(CC(=O)[O-])CC1)C(=O)[O-].[68Ga+3] (stereo not shown) [^68Ga-DO2A-ala]
[2] N[C@@H](CN1CCN(CC(=O)[O-])CCN(CC(=O)[O-])CCN(CC(=O)[O-])CC1)C(=O)O.[68Ga+3] (stereo in doubt) [^68Ga-DO3A-ala]
[3] O=C([O-])CN1CCNCCN(CC(=O)[O-])CCN(CC(=O)[O-])CC1.[68Ga+3] [^68Ga-DO3A, reference compound]
Enquiry: With regard to % ID/g Lung, arrange the entries in ascending order, please. # output: labels, in the requested order
Return: 3, 1, 2
(3: 5.81 % ID/g, 1: 8.45 % ID/g, 2: 13.60 % ID/g)
